So I've got a bunch of molecules here, and I need their MIC values.
system: Haemophilus influenzae; test: Susceptibility (MIC/MBC) of H. influenzae clinical isolates; assay type: cell-based; details: Haemophilus influenzae, strain 42; nanoemulsion values as μg CPC/ml or μg BA/ml
The reply should be a number in µg/mL, with the unit left off.

Could you share which MIC value was measured for `CCC[C@@H]1C[C@@H](C(=O)N[C@@H]([C@H]2O[C@H](SC)[C@H](O)[C@@H](O)[C@H]2O)[C@H](C)Cl)N(C)C1` ?
4

Can you share its MIC? I mean this molecule: `CC[C@H]1OC(=O)[C@H](C)[C@@H](O[C@H]2C[C@@](C)(OC)[C@@H](O)[C@H](C)O2)[C@H](C)[C@@H](O[C@@H]2O[C@H](C)C[C@H](N(C)C)[C@H]2O)[C@](C)(O)C[C@@H](C)CN(C)[C@H](C)[C@@H](O)[C@]1(C)O`
1

Recorded MIC for `CN(C)[C@@H]1C(O)=C(C(N)=O)C(=O)[C@@]2(O)C(O)=C3C(=O)c4c(O)cccc4[C@@](C)(O)[C@H]3C[C@@H]12` , please?
1

====

Hi there, I'd appreciate the recorded MIC for every entry that follows.
tested on: Acinetobacter baumannii; assay: MIC/MBC against clinical isolates (CLSI, alamar blue); settings: Acinetobacter baumannii, Acinetobacter isolate NB35
// units = µg/mL; emit number, no label

Checklist item: MIC tested on Acinetobacter baumannii, entry `NC[C@H]1O[C@H](O[C@H]2[C@H](O)[C@@H](O[C@H]3O[C@H](CO)[C@@H](O)[C@H](N)[C@H]3O)[C@H](N)C[C@@H]2N)[C@H](N)C[C@@H]1O` , value?
2

Field: MIC (Acinetobacter baumannii). Entry: CO/N=C(\C(=O)N[C@@H]1C(=O)N2C(C(=O)[O-])=C(C[N+]3(C)CCCC3)CS[C@H]12)c1csc(N)n1 [Cefepime]
32

// fetch Acinetobacter baumannii MIC for `C[C@@H](O)[C@H]1C(=O)N2C(C(=O)O)=C(SCCN=CN)C[C@H]12`
8

====

test system: Acinetobacter baumannii; assay: MIC/MBC against clinical isolates (CLSI, alamar blue); conditions: Acinetobacter baumannii, Acinetobacter isolate NB35
Provide the recorded MBC for the entries that follow.

Look up MBC for this molecule: NC[C@H]1O[C@H](O[C@H]2[C@H](O)[C@@H](O[C@H]3O[C@H](CO)[C@@H](O)[C@H](N)[C@H]3O)[C@H](N)C[C@@H]2N)[C@H](N)C[C@@H]1O [Tobramycin]
16 µg/mL

Which MBC is reported for this molecule? C[C@H]1COc2c(N3CCN(C)CC3)c(F)cc3c(=O)c(C(=O)O)cn1c23 [Levofloxacin]
> 16 µg/mL

Which MBC value belongs to CO[C@@]1(NC(=O)Cc2cccs2)C(=O)N2C(C(=O)O)=C(COC(N)=O)CS[C@@H]21 [Cefoxitin] ?
> 256 µg/mL

Which MBC reading was recorded for the molecule CO/N=C(\C(=O)N[C@@H]1C(=O)N2C(C(=O)[O-])=C(C[N+]3(C)CCCC3)CS[C@H]12)c1csc(N)n1 [Cefepime] ?
> 32 µg/mL

Form field: reported MBC of CC(C)(O/N=C(\C(=O)N[C@@H]1C(=O)N2C(C(=O)[O-])=C(C[n+]3ccccc3)CS[C@H]12)c1csc(N)n1)C(=O)O [Ceftazidime]
> 32 µg/mL

I'd like to know its MBC. The molecule in question is C[C@@H](O)[C@H]1C(=O)N2C(C(=O)O)=C(SCCN=CN)C[C@H]12 [Imipenem]
8 µg/mL
